Test: protein stability index of a GFP-peptide fusion (GPS, HEK-293T) (PSI 1-6); higher = more stable;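 further: 24-mer peptide tiles fused after GFP, lentivirally expressed, FACS-sorted into six equal bins by GFP/DsRed ratio, decoded by Illumina sequencing, PSI is the read-weighted mean bin number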
Conditions: treatment: DMSO; c terminus: a fixed tail appended
Tick true if protein stability index is 4 or greater. Tick false if protein stability index is less than 4.

Field: example entries. Status: answers known.
residues	classLabel
TLEALGYKGPLLEEQALTKAAEGG [FAM98B]	true
PQDGSYPRQADHDDHECCERVVIN [KCNA1]	true

Then this sequence:
Ask: Has DETTRSDISERPSVDDIESETGST [C2CD2L] a recorded protein stability index greater than or equal to 4?
Reply: true

* * *

Test: protein stability index of a GFP-peptide fusion (GPS, HEK-293T) (PSI 1-6); higher = more stable
Conditions: treatment: DMSO; c terminus: a fixed tail appended
Tick Yes if protein stability index is 4 or greater. Tick No if protein stability index is less than 4.

Field: example entries. Status: answers known.
residues	classLabel
NRIKGCHDHLTLSVSRPEGRSWPS [PDLIM4]	No
STHHGCEHICVNNGNSYICKCSEG [MATN2]	Yes
GDFWRMIWEQRSATVVMMTKLEER [PTPRD]	No

Ask: Has IEKFIREPSLKATMGLAGRARVKE [ALG2] a recorded protein stability index greater than or equal to 4?
Reply: No

Ask: Has GEALGRDHSEHLSGSSYRDALQRY [RBMY1A1] a recorded protein stability index greater than or equal to 4?
Reply: Yes

Ask: Has CEDQKQIKKPESFSKQIVLRGKSI [NEUROD6] a recorded protein stability index greater than or equal to 4?
Reply: Yes

Ask: Has EIIELRRTVNALEIELQAQHNLRD [KRT34] a recorded protein stability index greater than or equal to 4?
Reply: No

Ask: Has WSLYPSDSQVSEEVKTRHSEKSQR [CHGB] a recorded protein stability index greater than or equal to 4?
Reply: Yes

Ask: Has TGTSKRYQLCRVQECPPDGRSFRE [ADAMTSL2] a recorded protein stability index greater than or equal to 4?
Reply: No

Ask: Has ATKQLDFTRKTLAEKKQELDKLRN [SASS6] a recorded protein stability index greater than or equal to 4?
Reply: Yes

Ask: Has GLALESSSGLQDVTGPDNGVRESE [NFE2L1] a recorded protein stability index greater than or equal to 4?
Reply: Yes

Ask: Has GNRINVPMVRKRSVSNSTQTSSSS [DLC1] a recorded protein stability index greater than or equal to 4?
Reply: Yes

Ask: Has FENGQKAAVVHHFESFPAGSTLIF [TOR1AIP2] a recorded protein stability index greater than or equal to 4?
Reply: No
